# testTarget: Nuclear receptor subfamily 1 group I member 2 (Homo sapiens)
# assayRemarks: Dual reporter qHTS for agonist of Pregnane X Receptor (hPXR) against the NCATS DSHEA and TCM libraries: Luminescence readout (AID 1920059); for activation: 0% is about no effect
# testContext: hPXR dual reporter cells, luciferase luminescence agonist; series mostly up to 40 µM
Results filed as inconclusive are left out. The source made the active and inactive calls. Calls come from the whole dose curve; as a rule, active = well fitted activation curve with a large enough effect; inconclusive = small, poorly fitted or top-dose-only effect; inactive = flat fitted curve, though single readings scatter.
Possible outcomes: label 1 = active, label 0 = inactive

[[record]]
molecule = "CCCCCCCC/C=C\\CCCCCCCCCCCC(=O)O"
class = "label 0"

[[record]]
molecule = "CC(C)=CCC[C@](C)(OC1OC(COC2OCC(O)C(O)C2O)C(O)C(O)C1O)[C@H]1CC[C@]2(C)[C@@H]1[C@H](O)C[C@@H]1[C@@]3(C)CC[C@H](OC4OC(CO)C(O)C(O)C4OC4OC(CO)C(O)C(O)C4O)C(C)(C)[C@@H]3CC[C@]12C (stereo not given in full)"
class = "label 0"

[[record]]
molecule = "CC[C@H](CC[C@@H](C)[C@H]1CCC2C3CCC4C[C@@H](O)CC[C@]4(C)C3CC[C@@]21C)C(C)C (stereo not given in full)"
class = "label 0"

[[record]]
molecule = "CCCCCCCC/C=C\\CCCCCCCCCCCCCC(=O)O"
class = "label 0"

[[record]]
molecule = "O=C(O)[C@H]1O[C@@H](Oc2c(-c3ccc(O)c(O)c3)oc3cc(O)cc(O)c3c2=O)[C@H](O)[C@@H](O)[C@@H]1O"
class = "label 0"

[[record]]
molecule = "CC(=O)OC1CC2CCC1(C)C2(C)C (stereo not given)"
class = "label 0"

[[record]]
molecule = "CC12CC3(O)OC(O1)C1(COC(=O)c4ccc(O)cc4)C3CC21OC1OC(CO)C(O)C(O)C1O (stereo not given)"
class = "label 0"

[[record]]
molecule = "O=C(/C=C/c1ccc(O)c2c1[C@H](C(=O)O)[C@@H](c1ccc(O)c(O)c1)O2)O[C@H](Cc1ccc(O)c(O)c1)C(=O)O"
class = "label 0"

[[record]]
molecule = "O=C(/C=C/c1ccc(O)c(O)c1)O[C@@H]1C[C@](O)(C(=O)O)C[C@@H](O)[C@H]1O"
class = "label 0"

[[record]]
molecule = "C=C1CC[C@H]2C[C@@H]1C2(C)C"
class = "label 0"

[[record]]
molecule = "C=CC(=C)CCC=C(C)C"
class = "label 0"

[[record]]
molecule = "CC(C)c1ccc(C=O)cc1"
class = "label 0"

[[record]]
molecule = "CCCCC/C=C/C(=O)CCc1ccc(O)c(OC)c1"
class = "label 1"

[[record]]
molecule = "CCCCCCCCCC=O"
class = "label 0"

[[record]]
molecule = "O=C(/C=C/c1ccc(O)c(O)c1)O[C@H]1[C@H](O)C[C@](O)(C(=O)O)C[C@H]1OC(=O)/C=C/c1ccc(O)c(O)c1"
class = "label 0"

[[record]]
molecule = "C=C(C)[C@H]1CC=C(CO)CC1"
class = "label 0"

[[record]]
molecule = "C=C1C[C@@]23CC[C@H]4[C@](C)(CCC[C@]4(C)C(=O)O[C@@H]4O[C@H](CO)[C@@H](O)[C@H](O)[C@H]4O)[C@@H]2CC[C@]1(O[C@H]1O[C@@H](CO)[C@H](O)[C@@H](O)[C@@H]1O)C3"
class = "label 0"

[[record]]
molecule = "O=C(O)c1ccccc1"
class = "label 0"

[[record]]
molecule = "C=C1C[C@@]23CC[C@H]4[C@@](C)(CCC[C@@]4(C)C(=O)O[C@@H]4O[C@H](CO)[C@@H](O)[C@H](O)[C@H]4O[C@@H]4O[C@H](CO)[C@@H](O)[C@H](O)[C@H]4O)[C@@H]2CC[C@]1(O[C@@H]1O[C@H](CO)[C@@H](O)[C@H](O)[C@H]1O[C@@H]1O[C@H](CO)[C@@H](O)[C@H](O)[C@H]1O)C3"
class = "label 0"

[[record]]
molecule = "C=C1C[C@]23CC[C@H]4[C@@](C)(CCC[C@@]4(C)C(=O)O)[C@@H]2CC[C@@]1(O[C@@H]1O[C@H](CO)[C@@H](O)[C@H](O)[C@H]1O[C@@H]1O[C@H](CO)[C@@H](O)[C@H](O)[C@H]1O)C3"
class = "label 0"

[[record]]
molecule = "O=c1cc(-c2ccc(O)c(O)c2)oc2cc(O[C@@H]3O[C@@H](CO)[C@@H](O)[C@@H](O)[C@H]3O)cc(O)c12"
class = "label 0"

[[record]]
molecule = "CCCCCCCC/C=C/CCCCCCCCCC(=O)O"
class = "label 0"

[[record]]
molecule = "O=C(O)CC(O)(C(=O)O)C(O)C(=O)O (stereo not given)"
class = "label 0"

[[record]]
molecule = "CCCCC/C=C/C/C=C/CCCCCCCC(=O)O"
class = "label 0"

[[record]]
molecule = "OCCc1ccc(O)cc1"
class = "label 0"


Data origin: PubChem BioAssay (NCATS)
